The reported numbers originate from ChEMBL document CHEMBL1136397.

Notes on IC50 obtained with Peroxisome proliferator-activated receptor delta (Homo sapiens, UniProt Q03181).
Sequence (Q03181 whole entry): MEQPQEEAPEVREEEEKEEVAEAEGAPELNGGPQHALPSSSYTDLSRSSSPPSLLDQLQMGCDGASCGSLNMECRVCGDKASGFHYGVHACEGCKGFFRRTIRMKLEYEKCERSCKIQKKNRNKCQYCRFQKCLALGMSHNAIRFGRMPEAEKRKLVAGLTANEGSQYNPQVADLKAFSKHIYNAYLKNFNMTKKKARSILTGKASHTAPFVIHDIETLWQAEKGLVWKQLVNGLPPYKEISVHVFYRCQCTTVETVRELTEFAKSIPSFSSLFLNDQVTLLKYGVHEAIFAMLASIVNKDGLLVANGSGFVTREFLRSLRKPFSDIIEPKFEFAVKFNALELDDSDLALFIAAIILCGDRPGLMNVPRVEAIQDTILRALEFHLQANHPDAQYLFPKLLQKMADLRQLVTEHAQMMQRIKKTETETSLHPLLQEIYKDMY

molecule	subjectOfTest	IC50
CCCc1cc(Oc2ccc(OC)cc2)ccc1OCCCOc1ccc(C2SC(=O)NC2=O)cc1 (stereo not given)	Peroxisome proliferator-activated receptor delta (Homo sapiens, UniProt Q03181)	> 50 µM
CCCc1cc(Oc2ccccc2)ccc1OCCCOc1ccc(C2SC(=O)NC2=O)cc1F (stereo not given)	Peroxisome proliferator-activated receptor delta (Homo sapiens, UniProt Q03181)	2 µM
CCCc1cc(Oc2ccc(Cl)cc2)ccc1OCCCOc1ccc(C2SC(=O)NC2=O)cc1 (stereo not given)	Peroxisome proliferator-activated receptor delta (Homo sapiens, UniProt Q03181)	> 50 µM
CCCc1cc(Oc2ccccc2)ccc1OCCCOc1ccc(C2SC(=O)NC2=O)cc1 (stereo not given)	Peroxisome proliferator-activated receptor delta (Homo sapiens, UniProt Q03181)	> 10 µM
CCCc1cc(Oc2ccc(C3CCCC3)cc2)ccc1OCCCOc1ccc(C2SC(=O)NC2=O)cc1 (stereo not given)	Peroxisome proliferator-activated receptor delta (Homo sapiens, UniProt Q03181)	> 50 µM
CCCc1cc(Oc2ccc(S(C)(=O)=O)cc2)ccc1OCCCOc1ccc(C2SC(=O)NC2=O)cc1 (stereo not given)	Peroxisome proliferator-activated receptor delta (Homo sapiens, UniProt Q03181)	> 50 µM
CCCc1cc(Oc2ccccc2)ccc1OCCCOc1ccc(C2SC(=O)NC2=O)cc1C (stereo not given)	Peroxisome proliferator-activated receptor delta (Homo sapiens, UniProt Q03181)	6 µM
CCCc1cc(Oc2ccccc2)ccc1OCCCCOc1ccc(C2SC(=O)NC2=O)cc1 (stereo not given)	Peroxisome proliferator-activated receptor delta (Homo sapiens, UniProt Q03181)	> 10 µM
CCCc1cc(Oc2ccc(C(F)(F)F)cc2)ccc1OCCCOc1ccc(C2SC(=O)NC2=O)cc1 (stereo not given)	Peroxisome proliferator-activated receptor delta (Homo sapiens, UniProt Q03181)	> 50 µM
CCCc1cc(Oc2ccc(CC(C)C)cc2)ccc1OCCCOc1ccc(C2SC(=O)NC2=O)cc1 (stereo not given)	Peroxisome proliferator-activated receptor delta (Homo sapiens, UniProt Q03181)	> 50 µM
CCCc1cc(Oc2ccccc2)ccc1OCCCOc1ccc(C2SC(=O)NC2=O)cc1Cl (stereo not given)	Peroxisome proliferator-activated receptor delta (Homo sapiens, UniProt Q03181)	0.88 µM
CCCc1cc(Oc2ccc(C)cc2)ccc1OCCCOc1ccc(C2SC(=O)NC2=O)cc1 (stereo not given)	Peroxisome proliferator-activated receptor delta (Homo sapiens, UniProt Q03181)	> 50 µM
CCCc1cc(Oc2ccc(-c3ccccc3)cc2)ccc1OCCCOc1ccc(C2SC(=O)NC2=O)cc1 (stereo not given)	Peroxisome proliferator-activated receptor delta (Homo sapiens, UniProt Q03181)	> 50 µM
CCCc1cc(Oc2ccccc2)ccc1OCCCOc1ccc(C2SC(=O)NC2=O)cc1OC (stereo not given)	Peroxisome proliferator-activated receptor delta (Homo sapiens, UniProt Q03181)	> 10 µM
CCCc1cc(Oc2ccc(NS(C)(=O)=O)cc2)ccc1OCCCOc1ccc(C2SC(=O)NC2=O)cc1 (stereo not given)	Peroxisome proliferator-activated receptor delta (Homo sapiens, UniProt Q03181)	> 50 µM
CCCc1cc(Oc2ccc(F)cc2)ccc1OCCCOc1ccc(C2SC(=O)NC2=O)cc1 (stereo not given)	Peroxisome proliferator-activated receptor delta (Homo sapiens, UniProt Q03181)	> 50 µM
CCCc1cc(Oc2ccccc2)ccc1OCCCOc1ccc(C2SC(=O)NC2=O)cc1CCC (stereo not given)	Peroxisome proliferator-activated receptor delta (Homo sapiens, UniProt Q03181)	1 µM
O=C1NC(=O)C(c2ccc(OCCCOc3ccc(Oc4ccccc4)cc3)cc2)S1 (stereo not given)	Peroxisome proliferator-activated receptor delta (Homo sapiens, UniProt Q03181)	> 50 µM
CC(C)Cc1cc(Oc2ccccc2)ccc1OCCCOc1ccc(C2SC(=O)NC2=O)cc1 (stereo not given)	Peroxisome proliferator-activated receptor delta (Homo sapiens, UniProt Q03181)	0.16 µM
CCCc1cc(Oc2ccc(NS(=O)(=O)c3ccc(C)cc3)cc2)ccc1OCCCOc1ccc(C2SC(=O)NC2=O)cc1 (stereo not given)	Peroxisome proliferator-activated receptor delta (Homo sapiens, UniProt Q03181)	> 50 µM

---

# subjectOfTest: Peroxisome proliferator-activated receptor delta (Homo sapiens, UniProt Q03181)
Recorded measurements of EC50, one per entry

molecule	EC50
CCCc1cc(Oc2ccccc2)ccc1OCCCOc1ccc(C2SC(=O)NC2=O)cc1F (centres undefined)	> 3 µM
CCCc1cc(Oc2ccc(F)cc2)ccc1OCCCOc1ccc(C2SC(=O)NC2=O)cc1 (centres undefined)	> 50 µM
CCCc1cc(Oc2ccccc2)ccc1OCCCOc1ccc(C2SC(=O)NC2=O)cc1Cl (centres undefined)	> 3 µM
CCCc1cc(Oc2ccccc2)ccc1OCCCOc1ccc(C2SC(=O)NC2=O)cc1CCC (centres undefined)	3 µM
CCCc1cc(Oc2ccc(S(C)(=O)=O)cc2)ccc1OCCCOc1ccc(C2SC(=O)NC2=O)cc1 (centres undefined)	> 3 µM
CCCc1cc(Oc2ccc(CC(C)C)cc2)ccc1OCCCOc1ccc(C2SC(=O)NC2=O)cc1 (centres undefined)	> 3 µM
CCCc1cc(Oc2ccc(OC)cc2)ccc1OCCCOc1ccc(C2SC(=O)NC2=O)cc1 (centres undefined)	> 3 µM
CCCc1cc(Oc2ccccc2)ccc1OCCCOc1ccc(C2SC(=O)NC2=O)cc1 (centres undefined)	> 3 µM
CCCc1cc(Oc2ccccc2)ccc1OCCCOc1ccc(C2SC(=O)NC2=O)cc1OC (centres undefined)	> 3 µM

---

# subjectOfTest: Peroxisome proliferator-activated receptor gamma (Homo sapiens, UniProt P37231)
# Sequence (P37231 whole entry): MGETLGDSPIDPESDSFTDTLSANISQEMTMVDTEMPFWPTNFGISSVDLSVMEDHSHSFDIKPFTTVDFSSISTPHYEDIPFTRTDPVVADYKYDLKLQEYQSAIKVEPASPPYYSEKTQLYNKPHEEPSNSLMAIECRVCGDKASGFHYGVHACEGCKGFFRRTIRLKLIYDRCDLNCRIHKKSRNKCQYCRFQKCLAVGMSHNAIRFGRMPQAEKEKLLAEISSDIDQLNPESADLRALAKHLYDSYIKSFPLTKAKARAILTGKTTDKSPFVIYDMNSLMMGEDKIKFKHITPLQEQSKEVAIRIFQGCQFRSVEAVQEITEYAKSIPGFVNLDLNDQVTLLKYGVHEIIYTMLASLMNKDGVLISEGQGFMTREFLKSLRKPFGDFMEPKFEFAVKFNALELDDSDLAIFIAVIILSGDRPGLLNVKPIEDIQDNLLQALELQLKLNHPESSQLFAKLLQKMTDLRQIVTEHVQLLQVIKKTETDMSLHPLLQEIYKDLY
pIC50: −log10 of the molar value.
Recorded measurements of pIC50, one per entry

compound	pIC50
CCCc1cc(Oc2ccc(C(F)(F)F)cc2)ccc1OCCCOc1ccc(C2SC(=O)NC2=O)cc1 (stereo unspecified)	5.74
CCCc1cc(Oc2ccc(NS(=O)(=O)c3ccc(C)cc3)cc2)ccc1OCCCOc1ccc(C2SC(=O)NC2=O)cc1 (stereo unspecified)	5.24
CCCc1cc(Oc2ccccc2)ccc1OCCCCOc1ccc(C2SC(=O)NC2=O)cc1 (stereo unspecified)	5.52
CCCc1cc(Oc2ccccc2)ccc1OCCCOc1ccc(C2SC(=O)NC2=O)cc1Cl (stereo unspecified)	6.37
CCCc1cc(Oc2ccc(OC)cc2)ccc1OCCCOc1ccc(C2SC(=O)NC2=O)cc1 (stereo unspecified)	6.34
CCCc1cc(Oc2ccc(NS(C)(=O)=O)cc2)ccc1OCCCOc1ccc(C2SC(=O)NC2=O)cc1 (stereo unspecified)	5.70
CCCc1cc(Oc2ccc(Cl)cc2)ccc1OCCCOc1ccc(C2SC(=O)NC2=O)cc1 (stereo unspecified)	5.70
CCCc1cc(Oc2ccccc2)ccc1OCCCOc1ccc(C2SC(=O)NC2=O)cc1CCC (stereo unspecified)	6.92
CCCc1cc(Oc2ccc(CC(C)C)cc2)ccc1OCCCOc1ccc(C2SC(=O)NC2=O)cc1 (stereo unspecified)	6.89
CCCc1cc(Oc2ccccc2)ccc1OCCCOc1ccc(C2SC(=O)NC2=O)cc1C (stereo unspecified)	5.17
CCCc1cc(Oc2ccc(-c3ccccc3)cc2)ccc1OCCCOc1ccc(C2SC(=O)NC2=O)cc1 (stereo unspecified)	6.89
CCCc1cc(Oc2ccc(C)cc2)ccc1OCCCOc1ccc(C2SC(=O)NC2=O)cc1 (stereo unspecified)	5.59
CCCc1cc(Oc2ccc(C3CCCC3)cc2)ccc1OCCCOc1ccc(C2SC(=O)NC2=O)cc1 (stereo unspecified)	6.74
CCCc1cc(Oc2ccccc2)ccc1OCCCOc1ccc(C2SC(=O)NC2=O)cc1OC (stereo unspecified)	6.00
CCCc1cc(Oc2ccc(S(C)(=O)=O)cc2)ccc1OCCCOc1ccc(C2SC(=O)NC2=O)cc1 (stereo unspecified)	6.60

---

Notes on pEC50 obtained with Peroxisome proliferator-activated receptor gamma (Homo sapiens, UniProt P37231).
pEC50: −log10 of the molar value.
metric: pEC50

compound	numericReadout
CCCc1cc(Oc2ccccc2)ccc1OCCCOc1ccc(C2SC(=O)NC2=O)cc1OC (stereo not drawn)	6.40
CCCc1cc(Oc2ccccc2)ccc1OCCCOc1ccc(C2SC(=O)NC2=O)cc1F (stereo not drawn)	6.52
CCCc1cc(Oc2ccc(CC(C)C)cc2)ccc1OCCCOc1ccc(C2SC(=O)NC2=O)cc1 (stereo not drawn)	7.52
